area over the GR curve for assorted molecules
# Tested on: ZR751
# protocol_notes: area over the GR curve, 72 h; higher = more effect
Response body: numeric value in GR, unit text excluded.

# example entries with known answers
{"molecule": "CN(C)C/C=C/C(=O)Nc1ccc(C(=O)Nc2cccc(Nc3cc(-c4c[nH]c5ccccc45)ncn3)c2)cc1 [THZ-P1-2] (max 10 µM)", "test_system": "ZR751", "value_units": "GR", "area over the GR curve": 0.0386}
{"molecule": "CN(C)C/C=C/C(=O)Nc1ccc(C(=O)Nc2cccc(Nc3ncc(Cl)c(-c4c[nH]c5ccccc45)n3)c2)cc1 [THZ1] (max 1 µM)", "test_system": "ZR751", "value_units": "GR", "area over the GR curve": 0.162}
{"molecule": "CO[C@@H](C)Cn1c(=O)n(C)c2cnc3ccc(-c4cncc(C(C)(C)O)c4)cc3c21 (max 10 µM)", "test_system": "ZR751", "value_units": "GR", "area over the GR curve": 0.691}
{"molecule": "Cc1cc(Nc2ncc(Cl)c(Nc3ccccc3S(=O)(=O)C(C)C)n2)c(OC(C)C)cc1C1CCNCC1 [Ceritinib/LDK378] (max 10 µM)", "test_system": "ZR751", "value_units": "GR", "area over the GR curve": 0.16}
{"molecule": "Cc1nc(Nc2ncc(C(=O)Nc3c(C)cccc3Cl)s2)cc(N2CCN(CCO)CC2)n1 [Dasatinib] (max 10 µM)", "test_system": "ZR751", "value_units": "GR", "area over the GR curve": 0.687}
{"molecule": "CCC(=O)Nc1ccc(C(=O)Nc2ccc(Nc3ncc4c(n3)N(C)c3ccc(C)cc3C(=O)N4C)cc2)cc1", "test_system": "ZR751", "value_units": "GR", "area over the GR curve": 0.391}

Here's the next entry for you.
Reported area over the GR curve, molecule Cc1cc(C(C)Nc2ccccc2)c2nc(N3CCOCC3)cc(=O)n2c1 (configuration not stated) [TGX221] (max 10 µM) : ____ 0.354

====

# Test system: MDAMB231
# protocol_notes: area over the GR curve, 72 h; higher = more effect
metric: area over the GR curve (GR)
Response body: numeric value in GR, unit text excluded.

{"molecule": "CC(=O)c1c(C)c2cnc(Nc3ccc(N4CCNCC4)cn3)nc2n(C2CCCC2)c1=O (max 3.162 µM)", "area over the GR curve / GR": 0.345}

Reported area over the GR curve, molecule Cc1cc(Nc2ncc(Cl)c(Nc3ccccc3S(=O)(=O)C(C)C)n2)c(OC(C)C)cc1C1CCNCC1 [Ceritinib/LDK378] (max 10 µM) : ____ 0.344

====

# Test system: ZR7530
# protocol_notes: area over the GR curve, 72 h; higher = more effect
area over the GR curve for assorted molecules
Response body: numeric value in GR, unit text excluded.

{"molecule": "CN1CCN(CCOc2cc(OC3CCOCC3)c3c(Nc4c(Cl)ccc5c4OCO5)ncnc3c2)CC1 [Saracatinib/AZD0530] (max 10 µM)", "area over the GR curve, GR": 0.399}

Reported area over the GR curve, molecule COc1cc2nccc(Oc3ccc(NC(=O)C4(C(=O)Nc5ccc(F)cc5)CC4)cc3)c2cc1OC [Cabozantinib] (max 10 µM) : ____ 0.174

Reported area over the GR curve, molecule CCOc1cc2ncc(C#N)c(Nc3ccc(OCc4ccccn4)c(Cl)c3)c2cc1NC(=O)/C=C/CN(C)C [Neratinib/HKI272] (max 3.162 µM) : ____ 1.08

Reported area over the GR curve, molecule CCC(=O)Nc1ccc(C(=O)Nc2ccc(Nc3ncc4c(n3)N(C)c3ccc(C)cc3C(=O)N4C)cc2)cc1 [FMF-03-145-1] : ____ 0.918

Reported area over the GR curve, molecule NC(=O)Nc1cc(-c2cccc(F)c2)sc1C(=O)N[C@H]1CCCNC1 [AZD7762] (max 10 µM) : ____ 0.199

Reported area over the GR curve, molecule Cc1nn(C)c(COc2ccc(N3CCN(S(=O)(=O)N(C)C)CC3)cc2)c1-c1cccc2c(CCCOc3cccc4ccccc34)c(C(=O)O)n(CCN3CCOCC3)c12 (max 10 µM) : ____ 0.0093

Reported area over the GR curve, molecule CN(C)C/C=C/C(=O)Nc1ccc(C(=O)Nc2cccc(Nc3cc(-c4c[nH]c5ccccc45)ncn3)c2)cc1 [THZ-P1-2] (max 10 µM) : ____ 0.474

Reported area over the GR curve, molecule CCc1cnn2c(NCc3ccc[n+]([O-])c3)cc(N3CCCC[C@H]3CCO)nc12 (max 1 µM) : ____ 0.713

Reported area over the GR curve, molecule Cc1cc(Nc2ncc(Cl)c(Nc3ccccc3S(=O)(=O)C(C)C)n2)c(OC(C)C)cc1C1CCNCC1 [Ceritinib/LDK378] (max 10 µM) : ____ 0.0423

Reported area over the GR curve, molecule CC(=O)Nc1cccc(-n2c(=O)n(C3CC3)c(=O)c3c(Nc4ccc(I)cc4F)n(C)c(=O)c(C)c32)c1 (max 1 µM) : ____ 0.219

Reported area over the GR curve, molecule COc1cc2c(Oc3ccc4[nH]c(C)cc4c3F)ncnc2cc1OCCCN1CCCC1 [Cediranib/AZD2171] (max 10 µM) : ____ 0.0237

Reported area over the GR curve, molecule Cc1nc(Nc2ncc(C(=O)Nc3c(C)cccc3Cl)s2)cc(N2CCN(CCO)CC2)n1 [Dasatinib] (max 10 µM) : ____ 0.426

Reported area over the GR curve, molecule O=C(CCCCCCC(=O)Nc1ccccc1)NO [Vorinostat] (max 10 µM) : ____ 0.276

Reported area over the GR curve, molecule CCCCOc1c(C(=O)c2c(F)cc(C)cc2F)c[nH]c2nncc1-2 (max 10 µM) : ____ 0.481

Reported area over the GR curve, molecule CN1CCN(C(=O)c2ccc3cc(CCNc4ncnc5ccc(C#N)cc45)ccc3c2)CC1 [senexin b] (max 10 µM) : ____ 0.274

====

# Test system: HCC1187
# protocol_notes: GRmax, 72 h; higher = less effect
GRmax, 72 h for assorted compounds
Response body: numeric value in GR, unit text excluded.

{"compound": "CCc1cnn2c(NCc3ccc[n+]([O-])c3)cc(N3CCCC[C@H]3CCO)nc12 (max 1 µM)", "GRmax, 72 h [GR]": -0.791}
{"compound": "CN1CC[C@H](c2c(O)cc(O)c3c(=O)cc(-c4ccccc4Cl)oc23)[C@H](O)C1 [Flavopiridol] (max 1 µM)", "GRmax, 72 h [GR]": -0.885}
{"compound": "CNCc1ccc(-c2[nH]c3cc(F)cc4c3c2CCNC4=O)cc1 [Rucaparib] (max 10 µM)", "GRmax, 72 h [GR]": 0.802}

Here's the next entry for you.
Reported GRmax, 72 h, compound CCC(=O)Nc1ccc(C(=O)Nc2ccc(Nc3ncc4c(n3)N(C)c3ccc(C)cc3C(=O)N4C)cc2)cc1 [FMF-03-145-1] : ____ -0.506

====

# Test system: HTERT_HME1
# protocol_notes: area over the GR curve, 72 h; higher = more effect;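 further: Dye Drop or Deep Dye Drop imaging of viable cells in 384-well plates (Hoechst nuclei, LIVE/DEAD dye), nine half-log doses, GR normalized to DMSO controls and time-zero plates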
Label Criterion met when area over the GR curve >= 0.4 GR; otherwise Criterion not met.

Take a look at these entries with their results.
{"compound": "Cc1nc(-c2cn3c(n2)-c2ccc(-c4cnn(C(C)(C)C(N)=O)c4)cc2OCC3)n(C(C)C)n1 [Taselisib/GDC0032] (max 10 µM)", "qualitative_label": "Criterion met"}
{"compound": "CN(C)C(=O)c1cc2cnc(Nc3ccc(N4CCNCC4)cn3)nc2n1C1CCCC1 [LEE011/Ribociclib] (max 10 µM)", "qualitative_label": "Criterion not met"}
{"compound": "CCc1cnn2c(NCc3ccc[n+]([O-])c3)cc(N3CCCC[C@H]3CCO)nc12 (max 1 µM)", "qualitative_label": "Criterion met"}
{"compound": "COc1cccc(OCCCN)c1-c1cc(Nc2cnc(C#N)cn2)n[nH]1", "qualitative_label": "Criterion met"}
{"compound": "COc1cc2c(Oc3ccc4[nH]c(C)cc4c3F)ncnc2cc1OCCCN1CCCC1 [Cediranib/AZD2171] (max 10 µM)", "qualitative_label": "Criterion not met"}

Item Cc1cc(Nc2ncc(Cl)c(Nc3ccccc3S(=O)(=O)C(C)C)n2)c(OC(C)C)cc1C1CCNCC1 [Ceritinib/LDK378] (max 10 µM) with area over the GR curve of 0.4 GR or above? Criterion not met

Item CN1CCN(CCOc2cc(OC3CCOCC3)c3c(Nc4c(Cl)ccc5c4OCO5)ncnc3c2)CC1 [Saracatinib/AZD0530] (max 10 µM) with area over the GR curve of 0.4 GR or above? Criterion not met

====

GRmax, 72 h for assorted compounds
# System: 184A1
# protocol_notes: GRmax, 72 h; higher = less effect;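 further: breast cell lines in 384-well plates, nine doses across a 10^4 range, Dye Drop imaging of viable cells vs DMSO and time-zero plates, GR 0 means no net growth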
Response body: numeric value in GR, unit text excluded.

# example entries with known answers
{"compound": "CC(C)n1nc(-c2ccc3oc(N)nc3c2)c2c(N)ncnc21 [INK128/MLN0128] (max 3.162 µM)", "value_units": "GR", "readout_number": 0.139}
{"compound": "Cc1cc(Nc2ncc(Cl)c(Nc3ccccc3S(=O)(=O)C(C)C)n2)c(OC(C)C)cc1C1CCNCC1 [Ceritinib/LDK378] (max 10 µM)", "value_units": "GR", "readout_number": -0.728}
{"compound": "CCNC(=O)c1noc(-c2cc(C(C)C)c(O)cc2O)c1-c1ccc(CN2CCOCC2)cc1 [Luminespib/NVP-AUY922] (max 1 µM)", "value_units": "GR", "readout_number": 0.0336}

Here's the next entry for you.
Reported GRmax, 72 h, compound COc1ccc2c(c1)[C@]1(C[C@H]1c1ccc3c(/C=C/c4ccc(CN5C[C@@H](C)O[C@@H](C)C5)cc4)n[nH]c3c1)C(=O)N2 : ____ 0.0075
